# Tested on: RARg:RXRa (NR concentration 270 nM, RXRa partner concentration 90 nM)
# procedure.details: PBM binding z-score (relative to random genomic background probes); higher = stronger binding; sequences stand for … in GC…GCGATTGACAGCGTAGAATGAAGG
measured.endpoint: PBM binding z-score
Give the figure by itself; no unit, no explanation.

Inquiry: Could you share which PBM binding z-score value was measured for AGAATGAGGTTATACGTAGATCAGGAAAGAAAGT ?
Reply text: 1.68

Inquiry: Queued: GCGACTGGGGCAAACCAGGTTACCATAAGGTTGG
Reply text: 0.596

Inquiry: Moving on to the next sequence: CTCGGAAGGTCGTGCTCAGGTGAGTATACCAAAC
Reply text: 3.34

----------
# Test system: PPARa:RXRa (NR concentration 270 nM, RXRa partner concentration 90 nM)
# procedure.details: PBM binding z-score (relative to random genomic background probes); higher = stronger binding; sequences stand for … in GC…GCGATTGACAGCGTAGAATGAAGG
Parameter PBM binding z-score: see the listing below.
Reply: number alone, nothing else.

>>> recorded_result("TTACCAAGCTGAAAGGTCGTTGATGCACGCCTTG")
2.08
>>> recorded_result("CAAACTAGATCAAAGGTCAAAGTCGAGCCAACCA")
6.79
>>> recorded_result("CCGACTGGGGCAGACAGGTTACCATACCATCCGG")
0.114
>>> recorded_result("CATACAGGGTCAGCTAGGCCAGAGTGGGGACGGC")
4.31
>>> recorded_result("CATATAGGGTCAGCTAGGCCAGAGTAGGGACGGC")
4.44

Inquiry: Would you kindly share the measured PBM binding z-score for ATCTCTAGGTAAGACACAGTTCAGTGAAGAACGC ?
Reply text: 0.964

Inquiry: Proceed to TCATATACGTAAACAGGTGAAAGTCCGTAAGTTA
Reply text: 1.75

Inquiry: Now consider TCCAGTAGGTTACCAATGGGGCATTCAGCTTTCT and answer again.
Reply text: 1.6

Inquiry: And the next one, TCTCGGAGGACACGCAGGTCAGAGCTTTCCAGAG ?
Reply text: 1.22

Inquiry: Okay, and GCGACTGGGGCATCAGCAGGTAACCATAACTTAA ?
Reply text: 0.658

Inquiry: Ok, now CCTTACGGGTCACGAGGTTATAGCTCGACGAGCG
Reply text: 6.3

Inquiry: Entry to check: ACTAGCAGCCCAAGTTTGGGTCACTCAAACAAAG
Reply text: 0.976

Inquiry: // same read-out, input: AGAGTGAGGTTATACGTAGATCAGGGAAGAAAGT
Reply text: 2.91

Inquiry: Follow-up entry: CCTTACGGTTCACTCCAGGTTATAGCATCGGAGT
Reply text: 2.21

Inquiry: Consider next the sequence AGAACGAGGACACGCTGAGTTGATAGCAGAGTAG in the same way.
Reply text: -0.44

----------
# Tested on: LXRb:RXRa (NR concentration 270 nM, RXRa partner concentration 90 nM)
# procedure.details: PBM binding z-score (relative to random genomic background probes); higher = stronger binding; sequences stand for … in GC…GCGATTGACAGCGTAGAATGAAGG
Cut-off 1 on PBM binding z-score, inclusive. At or above means class 1; below means class 0.

>>> assigned_label("CTCGAAAGGTCGGTTGAGGTGAGTTTACGGATAA")
"class 1"
>>> assigned_label("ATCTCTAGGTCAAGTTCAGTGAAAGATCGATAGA")
"class 1"
>>> assigned_label("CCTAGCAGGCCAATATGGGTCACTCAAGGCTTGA")
"class 1"
>>> assigned_label("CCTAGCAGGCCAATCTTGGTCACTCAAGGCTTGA")
"class 0"
>>> assigned_label("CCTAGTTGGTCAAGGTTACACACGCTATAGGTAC")
"class 1"
>>> assigned_label("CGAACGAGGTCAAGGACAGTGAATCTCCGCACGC")
"class 1"
>>> assigned_label("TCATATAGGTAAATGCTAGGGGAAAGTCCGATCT")
"class 0"
>>> assigned_label("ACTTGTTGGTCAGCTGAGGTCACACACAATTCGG")
"class 1"
>>> assigned_label("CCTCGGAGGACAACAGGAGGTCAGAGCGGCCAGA")
"class 1"
>>> assigned_label("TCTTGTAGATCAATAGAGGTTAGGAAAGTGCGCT")
"class 0"

Inquiry: hey, is PBM binding z-score for this one >= 1? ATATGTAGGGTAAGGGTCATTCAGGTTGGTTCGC
Reply text: class 1

Inquiry: Same thing, different sequence: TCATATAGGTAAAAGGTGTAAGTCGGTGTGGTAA
Reply text: class 1

----------
# Test system: PPARg:RXRa IVT, anti-PPARg (NR concentration 270 nM, RXRa partner concentration 90 nM)
# procedure.details: PBM binding z-score (relative to random genomic background probes); higher = stronger binding; sequences stand for … in GC…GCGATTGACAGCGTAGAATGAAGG
Record Fulfilled whenever PBM binding z-score is at 2 or higher; record Not fulfilled when lower.

>>> assigned_label("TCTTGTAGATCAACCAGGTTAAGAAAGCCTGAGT")
"Not fulfilled"
>>> assigned_label("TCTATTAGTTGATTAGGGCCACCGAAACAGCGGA")
"Not fulfilled"
>>> assigned_label("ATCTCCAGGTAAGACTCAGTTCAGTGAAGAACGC")
"Not fulfilled"
>>> assigned_label("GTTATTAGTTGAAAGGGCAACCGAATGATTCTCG")
"Not fulfilled"
>>> assigned_label("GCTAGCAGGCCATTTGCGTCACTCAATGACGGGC")
"Not fulfilled"
>>> assigned_label("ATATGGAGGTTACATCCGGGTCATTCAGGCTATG")
"Fulfilled"
>>> assigned_label("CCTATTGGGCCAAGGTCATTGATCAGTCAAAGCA")
"Fulfilled"
>>> assigned_label("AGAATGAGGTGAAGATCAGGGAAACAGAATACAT")
"Fulfilled"
>>> assigned_label("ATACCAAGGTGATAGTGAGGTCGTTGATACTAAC")
"Not fulfilled"
>>> assigned_label("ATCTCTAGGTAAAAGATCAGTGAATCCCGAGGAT")
"Fulfilled"

Inquiry: In plain terms: is recorded PBM binding z-score at least 2 for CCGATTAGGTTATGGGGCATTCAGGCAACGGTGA ?
Reply text: Fulfilled

Inquiry: What would you report for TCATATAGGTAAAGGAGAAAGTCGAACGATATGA ?
Reply text: Fulfilled

----------
# Tested on: PXR homodimer (NR concentration 270 nM)
# procedure.details: PBM binding z-score (relative to random genomic background probes); higher = stronger binding; sequences stand for … in GC…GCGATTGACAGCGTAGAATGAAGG
Listed here are sequences together with their documented PBM binding z-score.
Please state the value as a number alone, without comment.

>>> recorded_result("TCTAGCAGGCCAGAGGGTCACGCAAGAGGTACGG")
-0.51

Let us examine a further case.
Inquiry: Requested read-out: PBM binding z-score. Entry: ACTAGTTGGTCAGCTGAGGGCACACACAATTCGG
Reply text: 0.211

----------
# Test system: RARa:RXR (NR concentration 270 nM, RXRa partner concentration 90 nM)
# procedure.details: PBM binding z-score (relative to random genomic background probes); higher = stronger binding; sequences stand for … in GC…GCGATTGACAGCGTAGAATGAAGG
measured.endpoint: PBM binding z-score
Reply briefly: the number, and no unit.

Consider the following illustrative entries.
>>> recorded_result("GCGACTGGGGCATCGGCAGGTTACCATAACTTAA")
0.387
>>> recorded_result("CGAACGAGGGCATGAGTTGATAACAAATGCCGAT")
0.612
>>> recorded_result("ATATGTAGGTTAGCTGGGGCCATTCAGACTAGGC")
1.33
>>> recorded_result("TAGCCTAGGTCATGGGCCATTATACCACGCGAAC")
2.65
>>> recorded_result("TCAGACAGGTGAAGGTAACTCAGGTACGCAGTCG")
0.878
>>> recorded_result("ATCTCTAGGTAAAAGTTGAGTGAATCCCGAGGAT")
0.3

Inquiry: Find the recorded PBM binding z-score belonging to CGCCCAAGGTCAGAGAGGTCAGTGAATGCCGAGT and report it.
Reply text: 5.47

Inquiry: Param item: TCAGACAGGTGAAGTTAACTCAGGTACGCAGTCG
Reply text: 0.876

----------
# Test system: RARg homodimer (NR concentration 270 nM)
# procedure.details: PBM binding z-score (relative to random genomic background probes); higher = stronger binding; sequences stand for … in GC…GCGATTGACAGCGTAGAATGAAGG
Output rule met for PBM binding z-score not less than 0.6; output rule not met otherwise.

# count of solved cases: 3
>>> assigned_label("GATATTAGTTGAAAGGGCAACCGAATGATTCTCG")
"rule met"
>>> assigned_label("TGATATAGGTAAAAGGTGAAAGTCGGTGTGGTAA")
"rule met"
>>> assigned_label("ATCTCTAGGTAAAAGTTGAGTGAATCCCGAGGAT")
"rule met"

Inquiry: Hi team, for TAGCCTATGTCATTCAGGGGCCAGTATAGAAAGC , is the recorded PBM binding z-score at or above 0.6?
Reply text: rule not met

Inquiry: Param item: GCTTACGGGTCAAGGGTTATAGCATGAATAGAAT
Reply text: rule met

Inquiry: Thanks! And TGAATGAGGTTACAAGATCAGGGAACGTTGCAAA ?
Reply text: rule met

Inquiry: Repeat with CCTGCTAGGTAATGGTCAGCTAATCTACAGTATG
Reply text: rule not met

Inquiry: Input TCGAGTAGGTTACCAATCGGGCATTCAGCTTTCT
Reply text: rule not met

Each recorded value in this set is attributed to the supplement of paper PMC6555819.
